# study.conditions: pH 6.8
This listing pairs compounds with measured aqueous solubility.
value.type: aqueous solubility

{"compound": "COc1cccc(NC(=O)CNc2cccc(-c3ccnc(C)n3)c2)c1", "observed.result": "0.0505 mg/mL"}
{"compound": "CC(C)[C@H](NC(=O)c1c(F)cccc1F)C(=O)N1CCOCC1", "observed.result": "0.0507 mg/mL"}
{"compound": "Cn1ccc(CN2CCC(c3cnccn3)CC2)n1", "observed.result": "0.05 mg/mL"}
{"compound": "O=C(C1CC1c1ccccc1F)N1CCC(n2c(=O)[nH]c3ccccc32)CC1 (stereo not given)", "observed.result": "0.0499 mg/mL"}
{"compound": "Cc1ccc(C(=O)N(C)C)cc1NS(C)(=O)=O", "observed.result": "0.0503 mg/mL"}
